Values from paper PMC9570207

Test Protocol: Pharmacokinetics of myo-inositol in serum after oral gavage, one-compartment PK model
Type: in vivo, Wistar rat
Condition Summary: male, rat, serum; secondary parameter, 2 g/kg oral, Wistar rats; read-out: T0.5, Biological half-life, ln(2)/kel (converted)
Reported Metric: half-life (h)
Value expressed in h; do not type the unit.

Please fill in: half-life reported for `O[C@H]1[C@H](O)[C@@H](O)[C@H](O)[C@@H](O)[C@H]1O` = 4.08
